- System: K-562 leukemia
- assay.procedure: NCI tumour cell line growth inhibition, 48 h
test.readout: TGI

Illustrative cases are given below, each with its answer.
# molecule, TGI
rows = [
    ("Cn1cc(C2=C(c3c4n(c5ccccc35)CCCCC4)C(=O)NC2=O)c2ccccc21", "> 25 µM"),
    ("N#Cc1c(N2CCCC2)ncn(-c2ccccc2)c1=O", "> 100 µM"),
    ("C[N+](C)(C)CC(=O)N/N=C(/CC(=O)CC(C1=C(O)c2ccccc2OC1)c1ccccc1)C(=O)Nc1cccc(Cl)c1 (stereo not drawn)", "> 100 µM"),
    ("COc1ccc(COCCOCc2nc(C#N)c(N)o2)cc1", "> 100 µM"),
    ("O=C(O)CCNCCCNCCC(=O)O", "> 100 µM"),
]

// for each molecule below, give its TGI
1. Cc1ccc([N+](=O)[O-])cc1NC1=NCCO1
2. CN1CCc2cc(N)cc3c2C1Cc1ccc(O)c(O)c1-3 (stereo not drawn)
3. CCOC(=O)c1csc(NC(=O)CN2CCOCC2)n1
4. C[C@@H]1CC[C@]2(C(=O)O)CC[C@]3(C)C(=CC[C@@H]4[C@@]5(C)CC[C@H](O)C(C)(C)[C@@H]5CC[C@]43C)[C@@H]2[C@]1(C)O
5. COc1ccc(N/N=C2\CCOc3ccc(C)cc3C2=O)cc1
6. Cc1ccc(NC(=O)Nc2ccc(-c3cccnc3)cc2N2CCC(CO)CC2)cc1
7. Cc1cc(Cc2cc(C)c(N)cc2N)c(N)cc1N
8. Fc1ccc(NC(=S)SCc2ccc3c(c2)OCO3)cc1F

1. > 100 µM
2. 85.3 µM
3. > 100 µM
4. 19.6 µM
5. > 100 µM
6. > 100 µM
7. > 100 µM
8. 59 µM
